Reported melting point values for a set of molecules
measured_endpoint: melting point

>>> print(df.to_string())
                                   molecule  recorded_measurement
0  O=C(NC(=O)C(c1ccccc1)c1ccccc1)OCCN1CCOCC1         135 to 137 °C
1       O=C(NC(=O)C(c1ccccc1)c1ccccc1)C1CC1                178 °C
2  CC(C)OC(=O)NC(=O)C(c1ccccc1)c1ccccc1 [Example 4]         122 to 124 °C
3  CCc1cnc(NC(=O)C(c2ccccc2)c2ccccc2)o1 [Example 63]         148 to 149 °C

The reported measurements were obtained from patent US6462198B1.
